# system: CrufCSP1
# assay-info: Fluorescence competitive binding assay with 1-NPN as probe
# condition-parameters: recombinant CrufCSP1 2 μM, 1-NPN 2 μM, ligand 0 to 30 μM, tris-HCl pH 7.4
Provide the reported pIC50 of each item.
Worth noting: pIC50 values are minus log10 of concentrations stated in mol/L.

Prompt line: I would be grateful if you could share the reported pIC50 for Cc1ccc(C=O)cc1 [p-Methyl benzaldehyde] .
Response line: 4.34

Prompt line: Now give it for CCCCCCCCCCCC=O [Dodecanal] too.
Response line: 4.39

Prompt line: Could you do the same for CCCCCCCCCC=O [Decanal] , please?
Response line: 4.60
